Recorded measurements of BT-474 pAkt (S473) IC50, one per entry
molecular target: Human HER3, endogenous, on human cancer cell lines (SK-Br-3, MCF7, BT-474) (human, UniProt P21860 20-1342); test: cell-based or functional assay
Sequence (P21860 20-1342): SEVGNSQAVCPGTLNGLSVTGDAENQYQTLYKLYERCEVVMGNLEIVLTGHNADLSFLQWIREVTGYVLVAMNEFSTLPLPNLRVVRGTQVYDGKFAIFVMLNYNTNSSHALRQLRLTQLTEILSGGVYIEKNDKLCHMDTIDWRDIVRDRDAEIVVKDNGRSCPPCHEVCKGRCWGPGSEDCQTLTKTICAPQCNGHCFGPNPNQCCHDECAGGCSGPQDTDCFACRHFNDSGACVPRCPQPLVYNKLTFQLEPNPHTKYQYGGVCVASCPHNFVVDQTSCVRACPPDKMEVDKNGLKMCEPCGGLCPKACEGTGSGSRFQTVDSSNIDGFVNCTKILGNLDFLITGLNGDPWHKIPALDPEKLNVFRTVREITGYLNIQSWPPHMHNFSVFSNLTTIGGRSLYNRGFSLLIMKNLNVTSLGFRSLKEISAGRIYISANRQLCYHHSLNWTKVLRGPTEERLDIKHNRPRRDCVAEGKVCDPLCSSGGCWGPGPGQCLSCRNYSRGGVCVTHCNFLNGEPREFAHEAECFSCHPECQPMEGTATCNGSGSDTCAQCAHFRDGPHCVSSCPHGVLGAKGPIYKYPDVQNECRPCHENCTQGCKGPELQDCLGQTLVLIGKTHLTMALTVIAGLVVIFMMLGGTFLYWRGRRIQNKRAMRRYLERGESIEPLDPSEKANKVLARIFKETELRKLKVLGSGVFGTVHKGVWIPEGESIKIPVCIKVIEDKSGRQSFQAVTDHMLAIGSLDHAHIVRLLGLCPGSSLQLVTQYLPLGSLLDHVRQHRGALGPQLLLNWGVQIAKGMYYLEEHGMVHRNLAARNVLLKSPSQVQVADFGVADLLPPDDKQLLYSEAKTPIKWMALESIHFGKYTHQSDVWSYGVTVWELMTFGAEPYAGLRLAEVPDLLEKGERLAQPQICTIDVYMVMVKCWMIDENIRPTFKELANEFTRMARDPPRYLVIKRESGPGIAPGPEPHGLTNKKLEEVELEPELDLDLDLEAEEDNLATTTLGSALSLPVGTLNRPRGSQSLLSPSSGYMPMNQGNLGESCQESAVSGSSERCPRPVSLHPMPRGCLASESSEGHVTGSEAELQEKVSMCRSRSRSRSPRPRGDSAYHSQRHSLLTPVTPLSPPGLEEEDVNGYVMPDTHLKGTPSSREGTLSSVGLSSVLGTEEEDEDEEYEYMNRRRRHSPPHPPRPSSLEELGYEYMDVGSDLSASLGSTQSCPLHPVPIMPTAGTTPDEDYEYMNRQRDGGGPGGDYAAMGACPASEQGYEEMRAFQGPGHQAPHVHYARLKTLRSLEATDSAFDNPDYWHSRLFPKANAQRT
Give a bare numeral; the unit pM is implied.

For orientation, consider the following solved cases.
BINDER | READOUT_NAME | ENDPOINT_RESULT
MOR13870 (antibody, human IgG1, kappa, V domains shown, tested as IgG) VH: QVQLVQSGAEVKKPGESLKISCKGSGYSFSNYWIAWVRQMPGKGLEWMGIIYPGTSDTIYSPSFQGQVTISADKSISTAYLQWSSLKASDTAMYYCARVHIIQPPSAWSYNAMDVWGQGTLVTVSS VL: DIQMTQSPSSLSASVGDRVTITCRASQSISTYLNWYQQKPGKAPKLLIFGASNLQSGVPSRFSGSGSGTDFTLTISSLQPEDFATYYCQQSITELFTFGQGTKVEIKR | BT-474 pAkt (S473) IC50 | 424
MOR13871 (antibody, human IgG1, kappa, V domains shown, tested as IgG) VH: QVQLVQSGAEVKKPGESLKISCKGSGYSFSNYWIAWVRQMPGKGLEWMGIIYPGSSDTIYSPSFQGQVTISADKSISTAYLQWSSLKASDTAMYYCARVHIIQPPSAWSYNAMDVWGQGTLVTVSS VL: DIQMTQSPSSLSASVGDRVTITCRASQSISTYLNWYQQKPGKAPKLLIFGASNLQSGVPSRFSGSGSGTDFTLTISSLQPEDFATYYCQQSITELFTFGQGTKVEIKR | BT-474 pAkt (S473) IC50 | 1630

Prompt line: # return recorded BT-474 pAkt (S473) IC50 for input MOR13768 (antibody, human IgG1, kappa, V domains shown, tested as IgG) VH: QVQLVQSGAEVKKPGESLKISCKGSGYSFTSSWVAWVRQMPGKGLEWMGIIYPGQSDTIYSPSFQGQVTISADKSISTAYLQWSSLKASDTAMYYCARVHIIQPPSAWSYNAMDVWGQGTLVTVSS VL: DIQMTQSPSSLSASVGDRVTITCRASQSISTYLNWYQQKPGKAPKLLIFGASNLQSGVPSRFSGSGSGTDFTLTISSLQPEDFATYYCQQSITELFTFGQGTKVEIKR
Response line: 466
